Origin of values: PubChem BioAssay AID624483

- Assay: compound fluorescence in toxin protease inhibitor counterscreen, primary screen, artefact control for toxin protease inhibitor project, biochemical, multiplex microsphere, HTS (AID 624483)
- Study Conditions: compound autofluorescence counterscreen, microsphere flow cytometry; stronger effect = higher value
The whole screen tested about 360,000 compounds, of which about 11,000 (3.1%) were called active. About 2% were inconclusive and are not listed. Many of the other results were omitted from the sample, so actives are more common in it than they were.
Please use yes whenever fluorescence intensity is not below 5000, and no whenever it is.

Past entries and their recorded results:
- Compound: "Cc1cc2ncn(CCCCOc3ccccc3)c2cc1C"
  Qualitative Label: "yes"
- Compound: "COc1ccc(OC)c(S(=O)(=O)NCCC(C)C)c1"
  Qualitative Label: "no"
- Compound: "FC(F)(F)c1nnc2c3ccccc3c(Cl)nn12"
  Qualitative Label: "no"
- Compound: "COCCNCCOCCOc1cccc(OC)c1"
  Qualitative Label: "no"
- Compound: "Cc1occc1C(=O)Nc1cccc(Cn2cccn2)c1"
  Qualitative Label: "yes"

In: Is fluorescence intensity for COCCOCCn1cnc2ccccc21 at or above 5000?
Out: yes

In: Entry to check: Fc1ccc(-c2ccc(-c3nn4c(-c5ccco5)nnc4s3)o2)cc1
Out: no

In: Further, for CCCCCC(=O)Nc1ccc(-c2cn3cccnc3n2)cc1 ?
Out: no

In: Same for CC1(C(=O)NS(=O)(=O)c2ccc(Cl)cc2)CCN1C(=O)CC1CCCC1 (centres undefined)
Out: no

In: Moving on to O=[N+]([O-])c1ccc(CN2CC(N3CC=CC3)CS2(=O)=O)cc1 (centres undefined)
Out: yes

----------
- Assay: compound fluorescence in toxin protease inhibitor counterscreen, primary screen, artefact control for toxin protease inhibitor project, biochemical, multiplex microsphere, HTS (AID 624483)
- Study Conditions: compound autofluorescence counterscreen, microsphere flow cytometry; stronger effect = higher value
Hit rate of the full screen: of about 360,000 compounds, about 11,000 (3.1%) were called active. Roughly 2% stayed inconclusive and do not appear here. This excerpt belongs to a sample that is enriched for actives.
Readout Type: fluorescence intensity
Please give the numeric answer without any surrounding text.

In: What value of fluorescence intensity has been reported for the following compound? O=C(CSc1nnc(-c2cnccn2)n1Cc1ccco1)c1ccc(Cl)c(Cl)c1
Out: 9950

In: Subsequent entry: Cc1cccc(C)c1N1CCN(S(=O)(=O)N2CCCCC2)CC1
Out: 3490

In: Do the same for COc1ccccc1NC(=O)CSc1nc2sc3c(c2c(=O)n1-c1ccccc1)CCN(C)C3 please
Out: 7290

In: Same question for CC(C)NC(=O)C(=O)NCCN1CCN(S(=O)(=O)c2ccc(Cl)cc2)CC1 please.
Out: 10600

----------
- Assay: compound fluorescence in toxin protease inhibitor counterscreen, primary screen, artefact control for toxin protease inhibitor project, biochemical, multiplex microsphere, HTS (AID 624483)
- Study Conditions: compound autofluorescence counterscreen, microsphere flow cytometry
The campaign covered roughly 360,000 compounds. About 11,000 (3.1%) were called active. Not shown: some 2% with an inconclusive outcome. No stated cut-off is given here; in the data, active means fluorescence intensity above about 16000; inconclusive means no clear call, values can overlap the other calls; inactive means below that. For the sample, actives were picked, then their nearest neighbours and some compounds at random.
Lab note: assign the record to one of Y for active, N for inactive

Below, 3 molecules whose answers are already recorded.
- Molecule: "CSCCC(NS(=O)(=O)c1ccc2c(c1)oc(=O)n2C)C(=O)NCc1ccccc1 (stereo not drawn)"
  Qualitative Label: "N"
- Molecule: "CCOc1ccc(OCC)c(NC(=O)CCS(=O)(=O)c2ccc(C)cc2)c1"
  Qualitative Label: "N"
- Molecule: "CC(C)Nc1ncnc2c1ncn2[C@H]1CN(Cc2ccncc2)C[C@@H](CO)O1"
  Qualitative Label: "N"

In: Kindly provide the recorded test outcome for the following molecule: CCNC(=O)C1(C)CCN(Cc2ccc(C(=O)OCC)o2)C1 (stereo not drawn)
Out: N

In: For CCOc1ccc(OCC)c(NC(=O)C(NS(=O)(=O)c2ccc3c(c2)oc(=O)n3C)C(C)C)c1 (stereo not drawn) then?
Out: Y

In: Next up: CCOC(=O)C1CCN(Cc2ccc(-c3ccccc3)cc2)CC1
Out: N

In: Request: CCOC(=O)C1CCN(C(=O)Nc2ccc(Cl)cc2)CC1
Out: N

In: What do you get for CCOC(=O)C1CCN(Cc2coc3ccc(Cl)cc3c2=O)CC1 ?
Out: Y

----------
- Assay: compound fluorescence in toxin protease inhibitor counterscreen, primary screen, artefact control for toxin protease inhibitor project, biochemical, multiplex microsphere, HTS (AID 624483)
- Study Conditions: compound autofluorescence counterscreen, microsphere flow cytometry; stronger effect = higher value
About 11,000 (3.1%) of roughly 360,000 compounds were called active. About 2% were inconclusive and are not listed. What follows is part of a selection rich in actives, with near analogues and random picks from the rest.
# fluorescence intensity per record follows

Worked cases, answers included:
- Molecule: "O=C(COc1ccccc1F)Nc1nc(-c2ccccn2)cs1"
  Readout Type: "fluorescence intensity"
  Recorded Result: "3790 (inactive)"
- Molecule: "Cc1cc(/C=C2/NC(=O)NC2=O)c(C)n1-c1cccnc1"
  Readout Type: "fluorescence intensity"
  Recorded Result: "8090 (inactive)"

In: # fluorescence intensity lookup, item O=C(O)C1CCCN1S(=O)(=O)c1ccc2c(c1)CCC2 (stereo unspecified)
Out: 7810 (inactive)

In: Quick one: COc1ccc(OC)c(NC(=O)CC(Cc2ccccc2OC)C(=O)O)c1 (stereo unspecified)
Out: 21100 (active)

In: Proceed to C#CC(C)(C)NC(=O)CSc1nc2c(c(=O)n(C)c(=O)n2C)n1CCCC
Out: 5580 (inactive)

----------
- Assay: compound fluorescence in toxin protease inhibitor counterscreen, primary screen, artefact control for toxin protease inhibitor project, biochemical, multiplex microsphere, HTS (AID 624483)
- Study Conditions: compound autofluorescence counterscreen, microsphere flow cytometry; stronger effect = higher value
In all, about 360,000 compounds went through this assay and about 11,000 (3.1%) were called active. About 2% were inconclusive and are not listed. For the sample, actives were picked, then their nearest neighbours and some compounds at random.
I would appreciate it if you labelled entries Satisfied when fluorescence intensity is 8000 or higher, otherwise Not satisfied.

Below are worked cases with known answers.
- Compound: "COc1cccc(Cn2cc(/C=N/NC(=O)c3cc(O)cc(O)c3)c3ccccc32)c1"
  Qualitative Label: "Not satisfied"
- Compound: "COc1ccc2c(c1)C(C)=CC(C)(C)N2C(=O)CNCc1ccc2c(c1)OCO2"
  Qualitative Label: "Satisfied"
- Compound: "COc1ccc2c(c1)C(C)=CC(C)(C)N2C(=O)Nc1ccccc1"
  Qualitative Label: "Not satisfied"
- Compound: "O=C(CSc1nccc(=O)[nH]1)Nc1ccc(N2CCOCC2)c(Cl)c1"
  Qualitative Label: "Not satisfied"
- Compound: "O=C(NCCO)c1cccc(-c2cccc3nccn23)c1"
  Qualitative Label: "Not satisfied"

In: I'd appreciate it if you could say whether Cn1nc(-c2ccc(Cl)cc2)c2cc(C(=O)NCc3ccco3)sc21 has fluorescence intensity at least equal to 8000.
Out: Not satisfied

In: Follow-up entry: O=C(Nc1cccc(-c2nnc(-c3ccccc3)o2)c1)C1CCCO1 (stereo not given)
Out: Satisfied

In: # repeat for CCc1cc(Br)ccc1NC(=O)C1CCCO1 (stereo not given)
Out: Satisfied

In: Query O=C(CSc1ccc(/C=N/NC(=O)c2cccc(F)c2)o1)Nc1ccccc1 next
Out: Satisfied

In: Same again, this time with COc1cccc(N(CC(=O)NC2CCCC2)C(=O)Cn2nnc(-c3ccc(C)o3)n2)c1
Out: Not satisfied

----------
- Assay: compound fluorescence in toxin protease inhibitor counterscreen, primary screen, artefact control for toxin protease inhibitor project, biochemical, multiplex microsphere, HTS (AID 624483)
- Study Conditions: compound autofluorescence counterscreen, microsphere flow cytometry; stronger effect = higher value
In all, about 360,000 compounds went through this assay and about 11,000 (3.1%) were called active. Not shown: some 2% with an inconclusive outcome. Many of the other results were omitted from the sample, so actives are more common in it than they were.
Readout Type: fluorescence intensity
// no unit string in output, number only

- Compound: "CC[C@]12c3[nH]c4cc(CCC(=O)N(C)C)ccc4c3CCN1C(=O)[C@@H](CC(=O)NCCCn1ccnc1)C[C@@H]2C(=O)N1CCN(C(=O)C2CC2)CC1"
  Recorded Result: 3900
- Compound: "Oc1ccc2nc(Cc3ccccc3)[nH]c2c1"
  Recorded Result: 4090
- Compound: "COc1ccc(-c2csc(C(O)c3cccc(Cl)c3)n2)cn1 (centres undefined)"
  Recorded Result: 3880

In: Consider the compound shown here: CCOC(=O)C1(C)NC(c2ccco2)C2C(=O)N(c3ccccc3)C(=O)C21 (centres undefined) What is its recorded fluorescence intensity?
Out: 4000

----------
Below: a set of entries, each annotated with reported fluorescence intensity.
- Assay: compound fluorescence in toxin protease inhibitor counterscreen, primary screen, artefact control for toxin protease inhibitor project, biochemical, multiplex microsphere, HTS (AID 624483)
- Study Conditions: compound autofluorescence counterscreen, microsphere flow cytometry; stronger effect = higher value
The campaign covered roughly 360,000 compounds. About 11,000 (3.1%) were called active. Roughly 2% stayed inconclusive and do not appear here. The sample holds actives, similar compounds and a random draw of the others, so the mix is not that of the screen.
// response body must contain only the number

These recorded examples may help you get a feel for the data.
- Compound: "Cc1ccc(NC(=O)NC2CCCCC2)cc1S(=O)(=O)N1CCOCC1"
  Readout Type: "fluorescence intensity"
  Recorded Result: 3370
- Compound: "CC1(C)OC(=O)C2=C(C[C@@H](C3CC3)O[C@H]2c2ccc(Cl)cc2)O1"
  Readout Type: "fluorescence intensity"
  Recorded Result: 5960
- Compound: "Cc1ccc(C(=O)Nc2ccccc2C(=O)NC2CCCCC2)cc1S(=O)(=O)N1CCOCC1"
  Readout Type: "fluorescence intensity"
  Recorded Result: 16600
- Compound: "Cc1nc(C)c(C(=O)Nc2ccc(C)c(F)c2)o1"
  Readout Type: "fluorescence intensity"
  Recorded Result: 20400
- Compound: "CCOC(=O)C1=CCC2C(=O)N(Cc3ccccc3)C(=O)C12 (centres undefined)"
  Readout Type: "fluorescence intensity"
  Recorded Result: 4910
- Compound: "CC(=O)NCC(=O)N1CCC(n2nccc2NC(=O)CCCc2ccccc2)CC1"
  Readout Type: "fluorescence intensity"
  Recorded Result: 6400

In: Which fluorescence intensity value is on record for COC(=O)[C@]12CCCCC=C1N(Cc1ccccc1)C(=O)[C@H](CC(=O)NCc1ccc(C)o1)C2 ?
Out: 5960

In: Thanks! And CCOCC(=O)NCc1ccc2c(c1)cc(C)n2C ?
Out: 4110

In: Could you do the same for CCOC(=O)CC1=C(C(=O)OCC)C2(C(=O)N1)C(C(=O)OC)=C(N)Oc1ccccc12 (centres undefined) , please?
Out: 4280

In: Please do the same for CC(=O)c1cc(NC(=O)c2ccccc2)c(=O)oc1/C=C/N(C)C as well.
Out: 24500

In: // repeat for CCOC(=O)c1ccc(-c2ccc3ncnc(N(C)Cc4sccc4C)c3c2)o1 and report
Out: 3710

In: Also need CCc1cc(=O)oc2cc(C)cc(OC(C)C(=O)O)c12 (centres undefined) , thanks.
Out: 22000

In: Cool, now CCc1nc2oc3ccccc3c(=O)c2c(=O)n1Cc1ccc(OC)cc1
Out: 17100

In: Next up: OC(c1ccccc1)C(CN1CCOCC1)c1ccccc1 (centres undefined)
Out: 4580

In: Similarly, O=c1c2ccccc2oc2nc3n(c(=O)c12)CCCS3 ?
Out: 10300

In: Repeat for the following compound: O=S(=O)(N1CCCCC1)N1CCNCC1
Out: 9990

In: For CC(C)(C)c1nnc(N/N=C/c2ccc(O)cc2)n(N)c1=O then?
Out: 9530

In: Also, C[C@H](CO)N1C[C@H](C)[C@@H](CN(C)Cc2ccc(-c3ccccc3)cc2)Oc2ccc(NC(=O)Cn3cnnn3)cc2C1=O please.
Out: 3780

In: Record: CCCNC(=O)C1(C)CCN1C(=O)Cc1ccc(-c2ccccc2)cc1 (centres undefined)
Out: 3250

In: O=[N+]([O-])c1ccc(C2C3C(c4ccccc4)=NC4(CCCCC4)N32)cc1 (centres undefined) ?
Out: 7680

In: Try this compound too: C=CCn1c2c(c3ccccc31)CCC2
Out: 6080

In: Ok, now CC(=O)Nc1cc(-c2ccc(N3CCN(C)CC3)cc2)cn2c(-c3ccc(F)cc3)cnc12
Out: 3850

In: Same again, this time with CCCCC(=O)N(C)c1c(CC)nc2c(OCc3ccc(Cl)cc3Cl)cccn12
Out: 3970

In: And for O=C(CC1NCCNC1=O)Nc1ccc(Oc2ccccc2)cc1 (centres undefined) ?
Out: 16900
